The sequences listed here are annotated with their phosphorylation enrichment.
tested on: AncSZ; test: phosphorylation enrichment, bacterial display (enrichment ratio); higher = better substrate or ligand; peptides without Tyr show the background;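 further: 11-residue human phosphosite peptides and single-mutation variants displayed on the E. coli surface, counted by deep sequencing, each peptide's frequency after selection divided by its frequency in the unselected input library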;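 further: frequency after pTyr selection over input frequency; kinase dosed for 20-30% of maximal phosphorylation in three min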
readout: phosphorylation enrichment

construct sequence: RNVYYYSYLLK [PTEN_Y178_Y174N]
value observed: 3.58
//
construct sequence: RPPFTYATLIR [FOXP3_Y342]
value observed: 1.14
//
construct sequence: RIVTTYIRERE [DNM2_Y463]
value observed: 1.12
//
construct sequence: RRKRAYVEIEY [MAK16_Y282_Q277R]
value observed: 1.37
//
construct sequence: EAEPFYRSLRD [NPHS1_Y1139_YF]
value observed: 0.792
//
construct sequence: HKLSSYEFDFE [BTK_Y40_Y39S_YF]
value observed: 1.83
//
construct sequence: ATYRGYDSDNP [MMUT_Y146_H143Y]
value observed: 0.742
//
construct sequence: IRRWVYPLTPE [EIF2B5_Y319]
value observed: 0.934
//
construct sequence: SVVVPYEPPEV [TP53_Y220]
value observed: 1.25
//
construct sequence: MENFIYESMQF [CYP19A1_Y361_R365Q_YF]
value observed: 1.81
//
construct sequence: FSGDCYRIQGR [DDR2_Y741_Y740C_YF]
value observed: 0.989
//
construct sequence: DPGVSYRTREE [PDHA1_Y301]
value observed: 0.891
//
construct sequence: MHDKEYYSVHN [MET_Y1234_Y1230H]
value observed: 0.78
//
construct sequence: LDCNEYFRDLN [HPRT1_Y198_Y195C]
value observed: 1.82
